Readings of IC50 for the listed compounds
Tested on: KB
protocol.text: Inhibition of KB cell growth was determined
Assay type: functional, cell-based
run.parameters: Homo sapiens
endpoint.name: IC50

[[record]]
compound = "OC[C@H]1OC(n2c(Cl)nc3cc(Br)c(Br)cc32)[C@H](O)[C@@H]1O (stereo partly drawn)"
target = "KB"
assay_value = "88 µM"

[[record]]
compound = "OC[C@H]1OC(n2c(Cl)nc3cc(I)c(I)cc32)[C@H](O)[C@@H]1O (stereo partly drawn)"
target = "KB"
assay_value = "27 µM"

[[record]]
compound = "Clc1nc2cc(Br)c(Br)cc2[nH]1"
target = "KB"
assay_value = "35 µM"

[[record]]
compound = "OC[C@H]1OC(n2c(Cl)nc3cc(F)c(F)cc32)[C@H](O)[C@@H]1O (stereo partly drawn)"
target = "KB"
assay_value = "> 100 µM"

[[record]]
compound = "OC[C@H]1OC(n2c(Cl)nc3ccccc32)[C@H](O)[C@@H]1O (stereo partly drawn)"
target = "KB"
assay_value = "> 100 µM"

[[record]]
compound = "Fc1cc2nc(Cl)[nH]c2cc1F"
target = "KB"
assay_value = "> 100 µM"

[[record]]
compound = "Nc1nc2c(ncn2COC(CO)CO)c(=O)[nH]1"
target = "KB"
assay_value = "> 100 µM"

[[record]]
compound = "Cc1cc2nc(Cl)n(C3O[C@H](CO)[C@@H](O)[C@H]3O)c2cc1C (stereo partly drawn)"
target = "KB"
assay_value = "> 100 µM"

